Target: human S1P1 receptor (Homo sapiens)
Construct: membranes used
Assay: GTP γ35S binding assay for S1P1 activity
Conditions: S1P1 receptor, membranes, compounds 0.08 to 5,000 nM; read-out: GTPγ^35S EC50
pEC50: −log10 of the molar value.
quantity.kind: pEC50

query.smiles	value.observed
CCCCCOc1ccc(-c2ccc(CNCCCP(=O)(O)O)nc2-c2cccc(F)c2)cc1	5.66
CCCCCCc1ccc(-c2ccc(CNCCCP(=O)(O)O)nc2-c2cccs2)cc1	8.28
O=P(O)(O)CCCNCc1ccc(-c2ccc(CCC(F)(F)C(F)(F)C(F)(F)C(F)(F)F)cc2)c(-c2ccccc2)c1	6.38
CCCCCOc1ccc(-c2ccc(CNCCCP(=O)(O)O)nc2-c2ccc(F)cc2)cc1	6.33
O=P(O)(O)CCCNCc1ccc(-c2ccc(CCCc3ccccc3)cc2)c(-c2ccccc2)c1	6.20

I. CCCCCCc1ccc(-c2ccc(CNCCCP(=O)(O)O)nc2-c2ccsc2)cc1
II. CCCCCCc1ccc(-c2ccc(CNCCCP(=O)(O)O)nc2-c2ccco2)cc1
Ask | I'm curious whether I or II has the smaller pEC50 number. Which is it? To answer, give the label that identifies your chosen option.
Reply | I
(I: 8.04, II: 9.36)

====

Target: human S1P1 receptor (Homo sapiens, UniProt P21453)
Construct: membranes used
Sequence (P21453 whole entry): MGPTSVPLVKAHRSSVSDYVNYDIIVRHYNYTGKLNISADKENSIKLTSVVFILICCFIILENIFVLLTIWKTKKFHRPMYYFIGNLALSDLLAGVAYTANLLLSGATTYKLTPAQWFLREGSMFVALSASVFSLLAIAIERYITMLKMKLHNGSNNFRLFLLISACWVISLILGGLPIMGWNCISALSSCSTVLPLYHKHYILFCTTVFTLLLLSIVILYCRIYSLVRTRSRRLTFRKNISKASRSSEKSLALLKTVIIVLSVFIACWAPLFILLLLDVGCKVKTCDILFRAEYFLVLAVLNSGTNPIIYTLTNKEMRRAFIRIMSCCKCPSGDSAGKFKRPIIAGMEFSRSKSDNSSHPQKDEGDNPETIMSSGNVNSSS
Assay: GTP γ35S binding assay for S1P1 activity
Settings: S1P1 receptor, membranes, compounds 0.08 to 5,000 nM; read-out: GTPγ^35S EC50
quantity.kind: EC50 (nM)

query.smiles	value.unit	value.observed
CCCCCCc1ccc(-c2ccc(CNCCCP(=O)(O)O)nc2-c2ccccc2)cc1	nM	252
O=P(O)(O)CCCNCc1ccc(-c2ccc(CCCc3ccccc3)cc2)c(-c2ccccc2)n1	nM	93.8
CCCCCCc1ccc(-c2ccc(CNCCCP(=O)(O)O)cc2-c2ccccc2)nc1	nM	317

P. CCCCCCc1ccc(-c2ccc(CNCCCP(=O)(O)O)cc2-c2ccccc2)cn1
Q. CCCCCCc1ccc(-c2ccc(CNCCCP(=O)(O)O)nc2-c2nccs2)cc1
Ask | In terms of reported EC50, does P or Q have the smaller number? Reply with the label of the item you choose.
Reply | Q

====

Molecular target: human S1P1 receptor (Homo sapiens)
Construct: expressed in transfected cells; membranes used
Assay: GTP γ35S binding assay for S1P1 activity
Format: biochemical
Settings: S1P1 receptor, membranes, compounds 0.08 to 5,000 nM; read-out: GTPγ^35S EC50
Description: Novel compounds were synthesized and tested for S1P1 activity using the GTP γ^35S binding assay. These compounds may be assessed for their ability to activate or block activation of the human S1P1 receptor in cells stably expressing the S1P1 receptor. GTP γ^35S binding was measured in the medium containing (mM) HEPES 25, pH 7.4, MgCl2 10, NaCl 100, dithitothreitol 0.5, digitonin 0.003%, 0.2 nM GTP γ^35S, and 5 μg membrane protein in a volume of 150 μl. […]
pEC50: −log10 of the molar value.
quantity.kind: pEC50

P. CCCCCCCCc1ccc(-c2ccc(CNCCCP(=O)(O)O)cc2-c2ccccc2)cn1
Q. O=P(O)(O)CCCNCc1ccc(-c2ccc(CCCc3ccccc3)cc2)c(-c2cccc(Cl)c2)n1
R. O=P(O)(O)CCCNCc1ccc(-c2ccc(CCCc3ccccc3)cc2)c(-c2cccs2)n1
S. CCCCCCc1ccc(-c2ccc(CNCCCP(=O)(O)O)nc2-c2cccs2)cc1CCC
T. CCCCCCc1ccc(-c2ccc(CNCCCP(=O)(O)O)nc2-c2ccc(F)s2)cc1
Ask | Lab note: pEC50 ranking, ascending, for the listed molecules. // list labels; follow requested order
Reply | Q, P, T, S, R
